Reference source for all entries: PubChem BioAssay AID2004

# system-tested: Dual specificity protein phosphatase 3 (Homo sapiens) (UniProt P51452)
# Sequence (P51452 whole entry, looked up): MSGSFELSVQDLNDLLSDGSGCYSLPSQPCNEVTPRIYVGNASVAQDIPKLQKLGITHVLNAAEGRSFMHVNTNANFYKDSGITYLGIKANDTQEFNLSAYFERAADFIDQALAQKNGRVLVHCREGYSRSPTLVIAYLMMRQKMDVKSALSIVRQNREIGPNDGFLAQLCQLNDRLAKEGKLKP
# assay-comment: PubChem AID 2004
# study-conditions: recombinant VHR phosphatase, colorimetric substrate read-out
pKi: −log10 of the molar value.
Response key: 1 means pKi >= 5; -1 means pKi < 5.

compound: S=C(Nc1ccc2c(c1)oc1ccccc12)Nc1cccc2ccccc12
system-tested: Dual specificity protein phosphatase 3 (Homo sapiens) (UniProt P51452)
assigned-label: 1
//
compound: Cc1ccc(C)n1-c1ccc(SCC(=O)O)cc1
system-tested: Dual specificity protein phosphatase 3 (Homo sapiens) (UniProt P51452)
assigned-label: 1
//
compound: C=CCN1C(=O)/C(=C\C=C\c2ccco2)C(=O)NC1=S
system-tested: Dual specificity protein phosphatase 3 (Homo sapiens) (UniProt P51452)
assigned-label: -1
//
compound: COc1ccc(N2C(=O)/C(=C/c3ccc(I)o3)C(=O)NC2=S)cc1
system-tested: Dual specificity protein phosphatase 3 (Homo sapiens) (UniProt P51452)
assigned-label: 1
//
compound: O=C(/C=C/c1ccco1)/C=C/c1ccc(-c2ccc(Cl)c(Cl)c2)o1
system-tested: Dual specificity protein phosphatase 3 (Homo sapiens) (UniProt P51452)
assigned-label: -1
//
compound: O=C(O)C(Cc1ccccc1)N1C(=O)/C(=C/C=C/c2ccccc2)SC1=S (stereo not drawn)
system-tested: Dual specificity protein phosphatase 3 (Homo sapiens) (UniProt P51452)
assigned-label: 1
//
compound: CCOC(=O)c1[nH]nc2c1C(=O)N(c1ccc(Br)cc1)C2=O
system-tested: Dual specificity protein phosphatase 3 (Homo sapiens) (UniProt P51452)
assigned-label: 1
//
compound: O=C1NC(=O)N(c2cccc(Br)c2)C(=O)/C1=C/c1ccc(-c2ccc(C(=O)O)cc2)o1
system-tested: Dual specificity protein phosphatase 3 (Homo sapiens) (UniProt P51452)
assigned-label: -1
//
compound: CC1=C(C#N)c2nc(N)c(C#N)c(C)c2/C1=C/c1ccc(-c2ccc(C(=O)O)c(Cl)c2)o1
system-tested: Dual specificity protein phosphatase 3 (Homo sapiens) (UniProt P51452)
assigned-label: 1
//
compound: O=C(/C=C/c1ccc(-c2ccccc2[N+](=O)[O-])o1)Nc1ccc(-c2nc3ccccc3o2)cc1
system-tested: Dual specificity protein phosphatase 3 (Homo sapiens) (UniProt P51452)
assigned-label: 1
//
compound: O=C1/C(=C/C=C/c2ccccc2)SC(=S)N1CCS(=O)(=O)O
system-tested: Dual specificity protein phosphatase 3 (Homo sapiens) (UniProt P51452)
assigned-label: 1
//
compound: COc1ccc(OC)c2c1C(=O)c1ccccc1C2=O
system-tested: Dual specificity protein phosphatase 3 (Homo sapiens) (UniProt P51452)
assigned-label: 1
//
compound: O=c1[nH]c(=S)n(-c2cccc(Cl)c2)c(O)c1/C=C1/C=CC=N1
system-tested: Dual specificity protein phosphatase 3 (Homo sapiens) (UniProt P51452)
assigned-label: 1

###

# system-tested: Dual specificity protein phosphatase 3 (Homo sapiens) (UniProt P51452)
# assay-comment: PubChem AID 2004
# study-conditions: recombinant VHR phosphatase, colorimetric substrate read-out
pKi: −log10 of the molar value.

smiles-repr: O=C(O)c1cccc(-c2ccc(/C=N/Nc3ccc([N+](=O)[O-])cn3)o2)c1
pKi: 4.86
//
smiles-repr: O=C1NC(=S)N(c2ccc(F)cc2)C(=O)/C1=C/c1ccc(Br)o1
pKi: 4.92
//
smiles-repr: Cc1ccc(C)n1-c1ccc(C(=O)O)c(O)c1
pKi: 4.89
//
smiles-repr: O=C1C(Cl)=C/C(=N\S(=O)(=O)c2ccc(Cl)cc2)C(Cl)=C1Cl
pKi: 4.87
//
smiles-repr: O=C1c2cccc3c4ccccc4n(c23)C(=O)C1(O)O
pKi: 4.86
